# measured.target: human AR (Homo sapiens, UniProt P10275)
# Construct: expressed in transfected cells; host or cells: CV-1 cells (African green monkey kidney fibroblasts)
# Sequence (P10275 1-920): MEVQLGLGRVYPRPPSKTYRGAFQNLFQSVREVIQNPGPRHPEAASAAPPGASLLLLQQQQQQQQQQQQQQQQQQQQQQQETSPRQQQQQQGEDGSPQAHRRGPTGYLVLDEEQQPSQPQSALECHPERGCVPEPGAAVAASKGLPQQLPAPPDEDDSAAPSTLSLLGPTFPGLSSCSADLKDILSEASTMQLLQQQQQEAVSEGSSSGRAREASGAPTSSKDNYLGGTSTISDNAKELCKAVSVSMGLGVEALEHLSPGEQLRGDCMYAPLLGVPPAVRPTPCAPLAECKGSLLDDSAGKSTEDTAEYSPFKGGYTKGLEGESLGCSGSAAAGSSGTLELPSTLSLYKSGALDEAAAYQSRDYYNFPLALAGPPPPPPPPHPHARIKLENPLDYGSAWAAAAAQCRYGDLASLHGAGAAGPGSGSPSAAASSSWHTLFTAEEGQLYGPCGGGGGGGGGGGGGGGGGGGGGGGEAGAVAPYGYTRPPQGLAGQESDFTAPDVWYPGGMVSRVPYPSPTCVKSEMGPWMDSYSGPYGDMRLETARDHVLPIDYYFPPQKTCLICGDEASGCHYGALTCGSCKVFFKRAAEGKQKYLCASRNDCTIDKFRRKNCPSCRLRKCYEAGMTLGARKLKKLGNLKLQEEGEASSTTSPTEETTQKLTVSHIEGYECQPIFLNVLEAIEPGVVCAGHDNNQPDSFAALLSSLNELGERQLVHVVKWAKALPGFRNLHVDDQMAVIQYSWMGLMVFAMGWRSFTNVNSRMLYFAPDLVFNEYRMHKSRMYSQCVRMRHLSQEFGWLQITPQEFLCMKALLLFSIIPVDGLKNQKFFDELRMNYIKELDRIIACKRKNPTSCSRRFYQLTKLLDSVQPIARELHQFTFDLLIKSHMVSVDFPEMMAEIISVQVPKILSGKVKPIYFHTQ
# assay.text: cell-based
# Assay type: cell-based
# reported AR Agonist CV-1 Cells Efficacy; entries follow
measured.quantity: AR Agonist CV-1 Cells Efficacy (%)

INSERT INTO assay_data (compound, readout_number) VALUES
  ('CCC1CCN([N+](=O)[O-])c2cc3[nH]c(=O)cc(C(F)(F)F)c3cc21 (racemic) [Compound 127]', 56),
  ('CCC1CCN(C=O)c2cc3[nH]c(=O)cc(C(F)(F)F)c3cc21 (racemic) [Compound 121]', 72),
  ('CC1CC(C)(C)Nc2cc3[nH]c(=O)c(F)c(C(F)(F)F)c3cc21 (stereo not drawn) [Compound 112]', 21);

---

# measured.target: human AR (Homo sapiens)
# Construct: expressed in transfected cells; host or cells: CV-1 cells (African green monkey kidney fibroblasts)
# assay.text: cell-based
# Assay type: cell-based
# experimental.setup: read-out: AR Antagonist CV-1 Cells Potency
pIC50: −log10 of the molar value.
The threshold is inclusive: pIC50 of exactly 7 counts as t; values below receive f.

INSERT INTO measurements (compound, category) VALUES
  ('CC1=CC(C)(C)Nc2cc3[nH]c(=O)c(F)c(C(F)(F)F)c3cc21', 't'),
  ('Cn1c(=O)c(F)c(C(F)(F)F)c2cc3c(cc21)N1CCCC1(C)CC3 (racemic)', 't'),
  ('CC1(C)CCc2cc3c(C(F)F)c(F)c(=O)[nH]c3cc2N1', 't'),
  ('Cn1c(=O)c(F)c(C(F)(F)F)c2cc3c(cc21)NC(C)(C)CC3', 't'),
  ('Cn1c(=O)cc(C(F)(F)F)c2cc3c(cc21)N(O)C(C)(C)CC3', 'f'),
  ('CN1c2cc3c(cc2CCC1(C)C)c(C(F)(F)F)c(F)c(=O)n3C', 't'),
  ('Cn1c(=O)cc(C(F)(F)F)c2cc3c4c(c21)CCCN4CCC3', 'f'),
  ('Cc1c2c(cc3c(C(F)(F)F)c(F)c(=O)n(C)c13)C(C)CC(C)(C)N2 (centres unmarked)', 'f'),
  ('CC1(C)CCc2cc3c(C(F)(F)F)cc(=O)[nH]c3cc2N1O', 'f'),
  ('CC1=CC(C)(C)Nc2c1cc1c(C(F)(F)F)c(F)c(=O)[nH]c1c2C', 'f'),
  ('Cc1c2c(cc3c(C(F)(F)F)c(F)c(=O)[nH]c13)C(C)CC(C)(C)N2C (centres unmarked)', 'f'),
  ('CC1(C)CCc2cc3c(C(F)(F)F)cc(=O)[nH]c3c([N+](=O)[O-])c2N1', 'f'),
  ('CC1CC(C)(C)Nc2cc3[nH]c(=O)c(F)c(C(F)(F)F)c3cc21 (centres unmarked)', 't'),
  ('CC12CCCN1c1cc3[nH]c(=O)c(F)c(C(F)(F)F)c3cc1CC2 (racemic)', 'f'),
  ('CC1(C)CCc2cc3c(C(F)(F)F)c(F)c(=O)[nH]c3cc2N1', 't'),
  ('O=c1cc(C(F)(F)F)c2cc3c4c(c2[nH]1)CCCN4CCC3', 'f'),
  ('CCC1(CC)CCc2cc3c(C(F)(F)F)c(F)c(=O)[nH]c3cc2N1', 't');

---

# measured.target: UniProt P06401
# Sequence (P06401 1-933): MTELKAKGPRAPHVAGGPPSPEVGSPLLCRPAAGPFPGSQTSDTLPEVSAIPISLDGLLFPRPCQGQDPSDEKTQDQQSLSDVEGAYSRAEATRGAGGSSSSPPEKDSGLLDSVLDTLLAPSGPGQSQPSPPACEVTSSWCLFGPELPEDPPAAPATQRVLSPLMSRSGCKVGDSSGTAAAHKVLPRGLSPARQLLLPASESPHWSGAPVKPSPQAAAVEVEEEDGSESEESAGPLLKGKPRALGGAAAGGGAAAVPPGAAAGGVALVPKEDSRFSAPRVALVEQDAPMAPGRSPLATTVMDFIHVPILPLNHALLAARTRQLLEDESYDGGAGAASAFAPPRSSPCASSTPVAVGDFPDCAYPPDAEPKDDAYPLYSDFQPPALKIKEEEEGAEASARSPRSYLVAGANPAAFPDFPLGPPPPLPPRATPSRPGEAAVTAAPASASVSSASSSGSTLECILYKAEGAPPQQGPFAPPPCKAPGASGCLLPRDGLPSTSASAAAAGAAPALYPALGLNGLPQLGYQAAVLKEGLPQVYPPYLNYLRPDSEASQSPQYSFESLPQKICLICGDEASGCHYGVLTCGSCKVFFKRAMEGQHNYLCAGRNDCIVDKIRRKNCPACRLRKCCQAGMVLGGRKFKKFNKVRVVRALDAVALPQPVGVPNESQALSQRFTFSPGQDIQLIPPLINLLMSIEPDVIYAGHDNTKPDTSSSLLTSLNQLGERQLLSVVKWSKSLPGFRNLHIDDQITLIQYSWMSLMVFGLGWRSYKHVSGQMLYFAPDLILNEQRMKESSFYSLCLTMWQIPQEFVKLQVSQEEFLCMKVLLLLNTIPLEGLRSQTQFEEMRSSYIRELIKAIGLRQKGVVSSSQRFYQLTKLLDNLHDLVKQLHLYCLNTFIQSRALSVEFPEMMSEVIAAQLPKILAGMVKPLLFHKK
measured.quantity: IC50 (nM)

INSERT INTO measurements (compound, readout_number) VALUES
  ('CC1(C)CCc2cc3c(C(F)(F)F)c(F)c(=O)[nH]c3cc2N1 [Compound 105]', 160),
  ('Cn1c(=O)cc(C(F)(F)F)c2cc3c(cc21)N1CCCC1(C)CC3 (racemic) [Compound 103]', 5940),
  ('CC12CCCN1c1cc3[nH]c(=O)c(F)c(C(F)(F)F)c3cc1CC2 (racemic) [Compound 102]', 398),
  ('Cn1c(=O)c(F)c(C(F)(F)F)c2cc3c(cc21)N1CCCC1(C)CC3 (racemic) [Compound 104]', 800);

---

# measured.target: human AR (Homo sapiens)
# Construct: expressed in transfected cells; host or cells: CV-1 cells (African green monkey kidney fibroblasts)
# assay.text: cell-based
# Format: cell-based
pEC50: −log10 of the molar value.
measured.quantity: pEC50

INSERT INTO results (smiles_structure, readout_number) VALUES
  ('CC1(C)CCc2cc3c(C(F)(F)F)c(F)c(=O)[nH]c3cc2N1', 6.90);

---

# reported AR Antagonist CV-1 Cells Efficacy; entries follow
# measured.target: human AR (Homo sapiens)
# Construct: expressed in transfected cells; host or cells: CV-1 cells (African green monkey kidney fibroblasts)
# assay.text: cell-based
# Assay type: cell-based
# experimental.setup: antagonist mode, DHT at its EC50; % of maximal inhibition; na = not active
measured.quantity: AR Antagonist CV-1 Cells Efficacy (%)

INSERT INTO measurements (compound, measured_quantity, readout_number) VALUES
  ('CC1(C)CCc2cc3c(C(F)(F)F)c(F)c(=O)[nH]c3cc2N1 [Compound 105]', 'AR Antagonist CV-1 Cells Efficacy', 39),
  ('Cn1c(=O)c(F)c(C(F)(F)F)c2cc3c(cc21)N1CCCC1(C)CC3 (racemic) [Compound 104]', 'AR Antagonist CV-1 Cells Efficacy', 85),
  ('Cn1c(=O)c(F)c(C(F)(F)F)c2cc3c(cc21)NC(C)(C)CC3 [Compound 107]', 'AR Antagonist CV-1 Cells Efficacy', 83);
